target: His-tagged CRBN-DDB1 complex (Homo sapiens (Human), UniProt Q96SW2); assay: Time-resolved fluorescence resonance energy transfer (TR-FRET) assay, displacement of Cy5-labeled thalidomide; assay type: binding
Sequence (Q96SW2 whole entry): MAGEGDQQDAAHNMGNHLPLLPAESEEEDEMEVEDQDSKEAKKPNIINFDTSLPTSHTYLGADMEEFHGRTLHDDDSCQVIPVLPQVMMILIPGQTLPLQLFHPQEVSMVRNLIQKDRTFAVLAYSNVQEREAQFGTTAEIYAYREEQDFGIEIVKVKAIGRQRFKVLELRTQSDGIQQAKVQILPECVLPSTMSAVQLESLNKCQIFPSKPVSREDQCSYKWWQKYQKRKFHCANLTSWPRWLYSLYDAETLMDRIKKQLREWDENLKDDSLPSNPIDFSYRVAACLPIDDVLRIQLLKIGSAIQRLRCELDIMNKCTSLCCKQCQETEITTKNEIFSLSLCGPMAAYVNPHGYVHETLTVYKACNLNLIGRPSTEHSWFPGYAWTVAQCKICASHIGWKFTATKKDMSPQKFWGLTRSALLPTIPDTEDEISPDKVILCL
Sequence (Q16531 whole entry partner): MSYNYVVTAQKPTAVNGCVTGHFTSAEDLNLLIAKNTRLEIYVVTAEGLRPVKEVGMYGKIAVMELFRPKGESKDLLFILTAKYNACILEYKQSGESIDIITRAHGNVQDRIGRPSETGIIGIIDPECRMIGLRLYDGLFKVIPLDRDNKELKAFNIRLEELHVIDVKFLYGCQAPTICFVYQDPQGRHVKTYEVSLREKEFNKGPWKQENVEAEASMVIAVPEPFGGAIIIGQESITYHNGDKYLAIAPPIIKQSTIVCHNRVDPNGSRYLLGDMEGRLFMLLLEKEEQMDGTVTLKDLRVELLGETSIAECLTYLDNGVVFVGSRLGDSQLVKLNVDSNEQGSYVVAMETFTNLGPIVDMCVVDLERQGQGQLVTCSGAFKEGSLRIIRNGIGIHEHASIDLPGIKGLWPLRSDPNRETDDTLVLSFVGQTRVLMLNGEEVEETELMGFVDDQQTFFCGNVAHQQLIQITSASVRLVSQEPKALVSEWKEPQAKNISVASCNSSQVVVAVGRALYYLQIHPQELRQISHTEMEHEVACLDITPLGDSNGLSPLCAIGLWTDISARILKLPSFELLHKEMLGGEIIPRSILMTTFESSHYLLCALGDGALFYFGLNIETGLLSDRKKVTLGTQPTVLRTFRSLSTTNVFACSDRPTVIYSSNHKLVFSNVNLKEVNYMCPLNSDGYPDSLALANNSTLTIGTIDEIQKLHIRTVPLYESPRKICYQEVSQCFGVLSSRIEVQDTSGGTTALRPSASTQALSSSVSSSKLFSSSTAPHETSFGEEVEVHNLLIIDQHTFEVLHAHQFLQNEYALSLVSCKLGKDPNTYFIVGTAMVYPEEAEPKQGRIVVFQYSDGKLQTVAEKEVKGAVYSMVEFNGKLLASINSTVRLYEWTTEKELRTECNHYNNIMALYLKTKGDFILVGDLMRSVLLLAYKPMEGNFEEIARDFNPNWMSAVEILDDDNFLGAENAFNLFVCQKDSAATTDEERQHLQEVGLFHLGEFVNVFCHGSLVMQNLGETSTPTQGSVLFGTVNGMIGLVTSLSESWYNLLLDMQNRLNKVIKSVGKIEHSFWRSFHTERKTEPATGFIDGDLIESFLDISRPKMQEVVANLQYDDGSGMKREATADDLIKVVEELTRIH
pIC50: −log10 of the molar value.
observation type: pIC50

Which pIC50 value is on record for O=C1CCC(N2C(=O)CN=C(c3ccccc3)c3ccccc32)C(=O)N1 (stereo not shown) ?
4.00 to 4.52

----------
target: His-tagged CRBN-DDB1 complex (Homo sapiens (Human), UniProt Q96SW2); test: Time-resolved fluorescence resonance energy transfer (TR-FRET) assay, displacement of Cy5-labeled thalidomide; assay type: binding; details: read-out: CRBN HTRF IC50
observation type: IC50

Consider the reported IC50 for these compounds:
- O=C1CCC(n2c3ccc(CCCOCCOCCO)cc3c3cccnc32)C(=O)N1 (stereo not shown): < 10 µM
- NCc1ccc2c3ccccc3n(C3CCC(=O)NC3=O)c2n1 (stereo not shown): 30 to 100 µM
- CNc1ccc2c(c1)c1cccnc1n2C1CCC(=O)NC1=O (stereo not shown): < 10 µM
- CC(C)(C)OC(=O)N1CCN(CCc2ccc3c(c2)c2cccnc2n3C2CCC(=O)NC2=O)CC1 (stereo not shown): < 10 µM
- CC(C)(C)OC(=O)NCCOCCOCC#Cc1ccc2c(c1)c1cccnc1n2C1CCC(=O)NC1=O (stereo not shown): < 10 µM

// batch mode: one IC50 value per listed entry
1. O=C1CCC(n2c3ccccc3c3c(CCCOCCOCCO)ccnc32)C(=O)N1 (stereo not shown)
2. O=C1CCC(n2c3cc(Br)ccc3c3cccnc32)C(=O)N1 (stereo not shown)
3. O=C1CCC(n2c3ccccc3c3ccsc32)C(=O)N1 (stereo not shown)

< 10 µM
10 to 30 µM
< 10 µM

----------
target: His-tagged CRBN-DDB1 complex (Homo sapiens (Human)); test: Time-resolved fluorescence resonance energy transfer (TR-FRET) assay, displacement of Cy5-labeled thalidomide; format: binding; details: read-out: CRBN HTRF IC50
Record form. Attribute: IC50. Fill in for each entry.

Consider the reported IC50 for these compounds:
- O=C1CCC(n2c3ccccc3c3ccnc(O)c32)C(=O)N1 (centres unmarked): 10 to 30 µM
- O=C1CCC(n2c3ccc(Br)cc3c3cccnc32)C(=O)N1 (centres unmarked): < 10 µM
- N#Cc1ccnc2c1c1ccccc1n2C1CCC(=O)NC1=O (centres unmarked): < 10 µM
- Cc1ccc2c3ccccc3n(C3CCC(=O)NC3=O)c2n1 (centres unmarked): < 10 µM
- CC(C)(C)OC(=O)NCCOCC#Cc1ccc2c(c1)c1cccnc1n2C1CCC(=O)NC1=O (centres unmarked): < 10 µM

// batch mode: one IC50 value per listed entry
1. O=C1CCC(n2c3cc(CCCOCCOCCO)ccc3c3cccnc32)C(=O)N1 (centres unmarked)
2. CC(C)(C)OC(=O)NCCOCCOCC#Cc1ccc2c3ccccc3n(C3CCC(=O)NC3=O)c2n1 (centres unmarked)
3. O=C1CCC(n2c3cc(F)ccc3c3cccnc32)C(=O)N1 (centres unmarked)
4. O=C1CCC(n2ccn3c4ccccc4nc23)C(=O)N1 (centres unmarked)

1: 10 to 30 µM; 2: 10 to 30 µM; 3: < 10 µM; 4: 30 to 100 µM

// batch mode: one IC50 value per listed entry
1. O=C1CCC(n2c3ccccc3n3ccnc23)C(=O)N1 (centres unmarked)
2. O=C1CCC(n2c3ccccc3c3c(Cl)csc32)C(=O)N1 (centres unmarked)
3. O=C1CCC(n2c3c(c4cccnc42)CN(Cc2ccccc2)CC3)C(=O)N1 (centres unmarked)
4. O=C1CCC(n2c3ccc(C#CCOCCOCCOCc4ccccc4)cc3c3cccnc32)C(=O)N1 (centres unmarked)
5. O=C1CCC(n2c3ccc(Br)cc3c3ccc(F)nc32)C(=O)N1 (centres unmarked)

["30 to 100 µM", "< 10 µM", "30 to 100 µM", "< 10 µM", "< 10 µM"]

// batch mode: one IC50 value per listed entry
1. O=C1CCC(n2c3ccccc3c3c(Br)ccnc32)C(=O)N1 (centres unmarked)
2. Nc1cnc2c(c1)c1ccccc1n2C1CCC(=O)NC1=O (centres unmarked)

< 10 µM
< 10 µM

// batch mode: one IC50 value per listed entry
1. CC(C)(C)OC(=O)NCCOCCOCCCc1ccc2c(c1)c1cccnc1n2C1CCC(=O)NC1=O (centres unmarked)
2. CN(C)c1ccc2c3ccccc3n(C3CCC(=O)NC3=O)c2n1 (centres unmarked)

< 10 µM
10 to 30 µM

// batch mode: one IC50 value per listed entry
1. CN(CCCOCCCc1ccc2c(c1)c1cccnc1n2C1CCC(=O)NC1=O)C(=O)OC(C)(C)C (centres unmarked)
2. NCCOCCOCCCc1cnc2c(c1)c1ccccc1n2C1CCC(=O)NC1=O (centres unmarked)

1. < 10 µM
2. < 10 µM
